Biological target: Protein RecA (Mycobacterium tuberculosis, UniProt P9WHJ3)
Experiment: Fluorescence Cell-Free Homogeneous Dose Retest to Identify Inhibitors of RecA-Intein Splicing Activity. [Related pubchem assays (depositor defined):AID2097, AID2223, AID489010, AID492950]
Assay type: functional
Activity calls are given as the source filed them. Cut-off read from the data, not from the text of the source: actives have a measured EC50 and inactives only a lower limit.
Outcomes: active, inactive

INSERT INTO assay_data (molecule, assigned_label) VALUES
  ('Cc1ccc(C2C(C#N)=C(N)Oc3[nH]nc(C)c32)cc1 (stereo not drawn)', 'active'),
  ('CCCc1n[nH]c2c1C(c1cccc(OC(=O)c3ccco3)c1)C(C#N)=C(N)O2 (stereo not drawn)', 'active'),
  ('Cc1ccccc1NC1=C/C(=N\S(=O)(=O)c2cccs2)c2ccccc2C1=O', 'active'),
  ('O=C1CCN(S(=O)(=O)c2ccccc2)N1', 'active'),
  ('CCOc1ccccc1CNc1ccc(O)cc1', 'active'),
  ('CN1CCN(C2=C(Cl)C(=O)N(c3ccc(Cl)c(Cl)c3)C2=O)CC1', 'active'),
  ('O=C(COC(=O)c1ccc2c(c1Cl)C(=O)c1ccccc1C2=O)NC1CC1', 'active'),
  ('C#CCOc1ccc(Br)cc1C(c1c(C)n[nH]c1O)c1c(C)n[nH]c1O', 'active'),
  ('CCCc1nnc(NC(=O)c2nc(S(=O)(=O)Cc3cccc(C)c3)ncc2Cl)s1', 'inactive'),
  ('CCOC(=O)c1c(C)oc2c1c1c(c3ccccc32)OCN(CCCC(=O)O)C1', 'active'),
  ('COc1cc(NC(=O)Cn2ncc(Cl)c(Cl)c2=O)c(C)cc1[N+](=O)[O-]', 'active'),
  ('COc1cc(C(c2c(C)n[nH]c2O)c2c(C)n[nH]c2O)ccc1OS(=O)(=O)c1ccccc1', 'active'),
  ('Nc1ccc(Nc2ccccc2N)cc1', 'active');
